assay: chemical genetic growth profiling, strain panel (AID 1159580);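 further: tested at 20 µM; growth read once vehicle control cultures reached saturation at 30 °C; 1 = growth at the plate median or of vehicle wells; lower values mean less growth of the strain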; conditions: S. cerevisiae deletion strains, growth OD, locus YGL167C, strain pmr1, stronger effect = lower value
About 2,000 (36%) of roughly 5,500 compounds were called active. Inconclusive results (about 18%) are left out. The list shows a part of the results.
endpoint.name: normalized growth
Please give only the number in your answer, with no unit.

C[C@@H](N)[C@@H](O)c1ccccc1 : 0.999
OC[C@H]1OC([S-])[C@H](O)[C@@H](O)[C@@H]1O.[Au+] (stereo partly drawn) : 1
CCCCC[C@H](CC(=O)NO)C(=O)N[C@H](C(=O)N1CCC[C@H]1CO)C(C)C : 1.01
CC(=O)Nc1nnc(S(N)(=O)=O)s1 : 1.01
CC12CC3CC(C)(C1)CC(N)(C3)C2 : 1.01

The reported value for `CCCC(C(=O)OCCN(CC)CC)(c1ccccc1)c1ccccc1` in terms of normalized growth is 0.999

The reported value for `O=C(O)CCC(=O)Nc1ccc(S(=O)(=O)Nc2nccs2)cc1` in terms of normalized growth is 0.995

The reported value for `COc1cc([C@@H]2c3cc4c(cc3[C@H](OC(C)=O)[C@H]3COC(=O)[C@@H]23)OCO4)cc(OC)c1OC` in terms of normalized growth is 1

====

assay: chemical genetic growth profiling, strain panel (AID 1159580); settings: S. cerevisiae deletion strains, growth OD, locus YJL129C, strain trk1
Hit rate of the full screen: of about 5,500 compounds, about 2,000 (36%) were called active. Not shown: some 18% with an inconclusive outcome. Cut-off read from the data, not from the text of the source: active = normalized growth mostly below about 0.91 (no sharp cut-off); inconclusive = no clear call, values can overlap the other calls; inactive = mostly above about 0.92. This is one part of the list.
Result category, one only: active, inactive

These recorded examples may help you get a feel for the data.
CC(CCC(=O)O)[C@H]1CCC2C3C(C[C@H](O)[C@@]21C)[C@@]1(C)CC[C@@H](O)C[C@H]1C[C@H]3O (stereo partly drawn) : inactive
O=C(O)CCCOc1ccc(Cl)cc1Cl : active

Switching to the query record.
**Query** Field: outcome | Entry: CC(CCC(=O)O)[C@H]1CCC2C3CC[C@@H]4CCCC[C@]4(C)C3CC[C@@]21C (stereo partly drawn)
**Result** inactive

====

assay: chemical genetic growth profiling, strain panel (AID 1159580); details: S. cerevisiae deletion strains, growth OD, locus YOR316C, strain cot1
The whole screen tested about 5,500 compounds, of which about 2,000 (36%) were called active. About 18% were inconclusive and are not listed. Cut-off read from the data, not from the text of the source: active = normalized growth mostly below about 0.91 (no sharp cut-off); inconclusive = no clear call, values can overlap the other calls; inactive = mostly above about 0.92. This is one part of the list.
Result category, one only: Yes for active, No for inactive

CCCC(CCC)C(=O)O : No
CC(CN1c2ccccc2Sc2cccnc21)N(C)C (stereo not drawn) : No
NNCCc1ccccc1 : No
CC(CCC(=O)O)[C@H]1CCC2C3CC[C@@H]4C[C@H](O)CC[C@]4(C)C3C[C@H](O)[C@@]21C (stereo partly drawn) : No
CN(C)C(=O)Nc1ccc(Cl)c(Cl)c1 : No

**Query** Field: outcome | Entry: CCC(=O)c1ccc2c(c1)N(CC(C)N(C)C)c1ccccc1S2 (stereo not drawn)
**Result** No

**Query** Field: outcome | Entry: C[C@H](CCC(=O)O)[C@H]1CCC2C3C(CC[C@@]21C)[C@@]1(C)CC[C@@H](O)C[C@H]1C[C@H]3O (stereo partly drawn)
**Result** No

**Query** Field: outcome | Entry: `O=c1cc(-c2ccccc2)oc2cc(O)cc(O)c12`
**Result** No

**Query** Field: outcome | Entry: `COc1cc([C@@H]2c3cc4c(cc3[C@H](OC(C)=O)[C@H]3COC(=O)[C@@H]23)OCO4)cc(OC)c1OC`
**Result** No

**Query** Field: outcome | Entry: `CNC(=O)Oc1ccc2c(c1)[C@]1(C)CCN(C)[C@@H]1N2C`
**Result** No

====

Measured normalized growth, listed per entry for reference.
assay: chemical genetic growth profiling, strain panel (AID 1159580); details: S. cerevisiae deletion strains, growth OD, locus YHR013C, strain ard1, stronger effect = lower value
Among all 5,500 compounds or so, about 2,000 (36%) were called active. Not shown: some 18% with an inconclusive outcome. Some of the results follow.

Examples with their reported normalized growth follow.
Nc1ccn(C2O[C@H](CO)[C@@H](O)[C@H]2O)c(=O)n1 (stereo not given in full) : 1.01 (inactive)
C[C@@H]1CC2C3C[C@H](F)C4=CC(=O)C=C[C@]4(C)[C@@]3(F)[C@@H](O)C[C@]2(C)[C@@]1(O)C(=O)COC(=O)C(C)(C)C (stereo not given in full) : 0.965 (inactive)
CC(=O)Nc1nnc(S(N)(=O)=O)s1 : 1.02 (inactive)
Clc1ccc2c(c1)C(N1CCNCC1)=Nc1ccccc1O2 : 0.891 (inactive)

// next entry
The reported value for CN(CCC(N)CC(=O)N[C@H]1C=CC(n2ccc(N)nc2=O)O[C@@H]1C(=O)O)C(=N)N (stereo not given in full) in terms of normalized growth is 0.929 (inactive)

====

assay: chemical genetic growth profiling, strain panel (AID 1159580); conditions: S. cerevisiae deletion strains, growth OD, locus YJL164C, strain tpk1
The whole screen tested about 5,500 compounds, of which about 2,000 (36%) were called active. Another 18% or so got no clear call; they are omitted. Cut-off read from the data, not from the text of the source: active = normalized growth mostly below about 0.91 (no sharp cut-off); inconclusive = no clear call, values can overlap the other calls; inactive = mostly above about 0.92. This is one part of the list.
Result category, one only: active, inactive

O=[N+]([O-])c1cccc2c(Br)[nH]nc12 : inactive

**Query** Field: outcome | Entry: `COc1cc([C@H]2Oc3cc([C@H]4Oc5cc(O)cc(O)c5C(=O)[C@@H]4O)ccc3O[C@@H]2CO)ccc1O`
**Result** inactive

**Query** Field: outcome | Entry: `NNCCc1ccccc1`
**Result** inactive

**Query** Field: outcome | Entry: Cc1ncc([N+](=O)[O-])n1CC(C)O (stereo not given)
**Result** inactive

**Query** Field: outcome | Entry: `CN(C)N=Nc1nc[nH]c1C(N)=O`
**Result** inactive

**Query** Field: outcome | Entry: C[C@H](CCC(=O)O)[C@H]1CCC2C3C(CC[C@@]21C)[C@@]1(C)CC[C@@H](O)C[C@H]1C[C@H]3O (stereo not given in full)
**Result** inactive

**Query** Field: outcome | Entry: CC(CCC(=O)O)[C@H]1CCC2C3C(C[C@H](O)[C@@]21C)[C@@]1(C)CC[C@@H](O)C[C@H]1C[C@H]3O (stereo not given in full)
**Result** inactive

**Query** Field: outcome | Entry: `O=[N+]([O-])c1cccc2cn[nH]c12`
**Result** inactive

====

Measured normalized growth, listed per entry for reference.
assay: chemical genetic growth profiling, strain panel (AID 1159580);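 further: tested at 20 µM; growth read once vehicle control cultures reached saturation at 30 °C; 1 = growth at the plate median or of vehicle wells; lower values mean less growth of the strain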; conditions: S. cerevisiae deletion strains, growth OD, locus YGR252W, strain gcn5, stronger effect = lower value
Screen size: about 5,500 compounds; about 2,000 (36%) were called active. Another 18% or so got no clear call; they are omitted. This is one part of the list.
Please give only the number in your answer, with no unit.

Examples with their reported normalized growth follow.
CN(C)CCOC(=O)COc1ccc(Cl)cc1 : 1.01
CCN(CC)CCOC(=O)C(c1ccccc1)c1ccccc1 : 0.994
CN1CCN(C2=Nc3ccccc3Oc3ccc(Cl)cc32)CC1 : 0.956
NCC(CC(=O)O)c1ccc(Cl)cc1 (stereo unspecified) : 0.966
NC(N)=NCCCC(NC(=O)C(N)Cc1ccc(O)cc1)C(=O)O (stereo unspecified) : 1.23

// next entry
The reported value for `COc1c2ccccc2nc2occc12` in terms of normalized growth is 0.728

====

assay: chemical genetic growth profiling, strain panel (AID 1159580);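 further: tested at 20 µM; growth read once vehicle control cultures reached saturation at 30 °C; 1 = growth at the plate median or of vehicle wells; lower values mean less growth of the strain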; details: S. cerevisiae deletion strains, growth OD, locus YDR162C, strain NBP2, stronger effect = lower value
The whole screen tested about 5,500 compounds, of which about 2,000 (36%) were called active. Another 18% or so got no clear call; they are omitted. The list shows a part of the results.
Label Yes when normalized growth is strictly below 1; at or above that, label No.

These recorded examples may help you get a feel for the data.
C[C@@H](N)[C@@H](O)c1ccccc1 : Yes
CC(CN1c2ccccc2Sc2cccnc21)N(C)C (stereo unspecified) : No
CN(C)C(=O)Nc1ccc(Cl)c(Cl)c1 : Yes

**Query** Quick check: does `N[C@@H](Cc1cc(I)c(Oc2cc(I)c(O)c(I)c2)c(I)c1)C(=O)O` have normalized growth under 1?
**Result** No

====

test: chemical genetic growth profiling, strain panel (AID 1159580);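 further: tested at 20 µM; growth read once vehicle control cultures reached saturation at 30 °C; 1 = growth at the plate median or of vehicle wells; lower values mean less growth of the strain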; conditions: S. cerevisiae deletion strains, growth OD, locus YDR137W, strain rgp1, stronger effect = lower value
Among all 5,500 compounds or so, about 2,000 (36%) were called active. Not shown: some 18% with an inconclusive outcome. The list shows a part of the results.
Measured normalized growth, listed per entry for reference.

O=c1cc(-c2cc(O)c(O)c(O)c2)oc2cc(O)cc(O)c12 : 0.992 (inactive)

The reported value for CC(CN(C)C)CN1c2ccccc2Sc2ccccc21 (configuration not stated) in terms of normalized growth is 1.22 [resistant] (active)

The reported value for `NNCCc1ccccc1` in terms of normalized growth is 1.02 (inactive)

The reported value for C=C1C2CCC3(C)C(c4ccoc4)OC(=O)CC13OC1CC(OC(C)=O)C(C)(C)C(CC(=O)OC)C12C (configuration not stated) in terms of normalized growth is 0.899 (inactive)

The reported value for C=Cc1c(C)c2[n-]c1=Cc1[n-]c(c(CC)c1C)C=c1[n-]c3c(c1C)C(=O)C(C(=O)[O-])C=3c1[n-]c(c(C)c1CCC(=O)[O-])C=2.[Cu] (configuration not stated) in terms of normalized growth is 1.16 [resistant] (active)

The reported value for `CCCC(C(=O)OCCN(CC)CC)(c1ccccc1)c1ccccc1` in terms of normalized growth is 1.18 [resistant] (active)

The reported value for `O=c1cc(-c2ccccc2)oc2c(O)c(O)ccc12` in terms of normalized growth is 0.664 (active)

The reported value for `CCN(CC)CCOC(=O)C(c1ccccc1)c1ccccc1` in terms of normalized growth is 0.994 (inactive)

The reported value for `CO[C@]12C[C@@H](COC(=O)c3cncc(Br)c3)CN(C)[C@@H]1Cc1cn(C)c3cccc2c13` in terms of normalized growth is 1.12 (inactive)

The reported value for `COc1cc(C)c(C(=O)Oc2cc(C)c(C(=O)O)c(O)c2C)c(OC)c1C` in terms of normalized growth is 0.906 (inactive)

The reported value for `CCCCC[C@H](CC(=O)NO)C(=O)N[C@H](C(=O)N1CCC[C@H]1CO)C(C)C` in terms of normalized growth is 0.972 (inactive)

The reported value for CCN(CC)C(C)CN1c2ccccc2Sc2ccccc21 (configuration not stated) in terms of normalized growth is 1.14 (inactive)

The reported value for CN(CCC(N)CC(=O)N[C@H]1C=CC(n2ccc(N)nc2=O)O[C@@H]1C(=O)O)C(=N)N (some centres not stated) in terms of normalized growth is 0.852 (inactive)

The reported value for `N[C@@H]1[C@@H](O)[C@H](O)[C@@H](CO)O[C@H]1O` in terms of normalized growth is 1.03 (inactive)

The reported value for C[C@H](CCC(=O)O)[C@H]1CCC2C3C(CC[C@@]21C)[C@@]1(C)CC[C@@H](O)C[C@H]1C[C@H]3O (some centres not stated) in terms of normalized growth is 0.786 (active)

The reported value for `CC1=C2[C@H]3OC(=O)[C@@H](C)[C@@H]3CC[C@@]2(C)C=CC1=O` in terms of normalized growth is 0.972 (inactive)

The reported value for `CN(C)CCOC(=O)COc1ccc(Cl)cc1` in terms of normalized growth is 1.21 [resistant] (active)

The reported value for `CC(=O)Nc1nnc(S(N)(=O)=O)s1` in terms of normalized growth is 1 (inactive)

The reported value for `O=c1cc(-c2ccccc2)oc2cc(O)c(O)cc12` in terms of normalized growth is 0.856 (inactive)
